Data provenance is paper PMC9482650.

# testTarget: GRASP, Q7Z6J2
# Sequence (Q7Z6J2 96-193): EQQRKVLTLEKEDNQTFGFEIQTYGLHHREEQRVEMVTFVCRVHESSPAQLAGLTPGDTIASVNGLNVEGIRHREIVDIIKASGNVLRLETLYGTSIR
# assaySummary: holdup assay
# Parameters: key: below the threshold = too weak to quantify, mostly under pKd 3.1 to 4
# assayConditions: plain residues with an end cap or a label only (N-terminal biotin on a linker: ado-ado)
parameter: pKd

binder | reportedResult
SSALYGESDL [ACTN2, P35609] | 3.93
EKKTLIGIKL [GOT1L1, Q8NHS2] | below the threshold
LPHPHSTTRV [NLGN2, Q8NFZ4] | 4.18
SKSNFGSEPL [KIF17, Q9P2E2] | below the threshold
SAAKVLTSMC [GHRHR, Q02643] | 4.32

Prompt: Item LSEFKAMDSI [CTNNA1, P35221] has what recorded pKd?
Completion: below the threshold

Prompt: Query: pKd; subject: PPYRHRNTVV [ERBB4, Q15303]
Completion: 4.04

Prompt: I would be grateful if you could share the reported pKd for PRAEAEDSFL [PDGFRB, P09619] .
Completion: 3.58

Prompt: What value of pKd has been reported for the following binder? YLEPVLSSEL [ATP2A2, P16615;P16615-3]
Completion: 4.82

Prompt: Fill in: pKd of CLREWCDAFL [BANF1, O75531] is ___
Completion: 3.51

Prompt: Can you look up the measured pKd of SNAGNTATKA [NOSTRIN, Q8IVI9] for me?
Completion: below the threshold

Prompt: Find the recorded pKd belonging to PRISRSQSEL [CCDC134, Q9H6E4] and report it.
Completion: 4.31

Prompt: Which pKd is reported for this binder? IPLDGETEEL [MYOZ1, Q9NP98]
Completion: 3.74

Prompt: Give the measured pKd of YRLAQESGLV [ABCC6, O95255] .
Completion: below the threshold

Prompt: Requested read-out: pKd. Entry: EVEEFPETSV [TRPV3, Q8NET8]
Completion: 3.9

Prompt: I am curious: what pKd value has been reported for PDGQCTVTEV [RNF146, Q9NTX7] ?
Completion: 4.7

Prompt: Quick one: pKd of PEYLGLDVPV [ERBB2, P04626] ?
Completion: below the threshold

Prompt: What value of pKd has been recorded for this entry: GSGAVEMESV [AQP6, Q13520]
Completion: below the threshold

Prompt: What does the record list as pKd for SGSLKLMTTV [DACT1, Q9NYF0] ?
Completion: 4.02

Prompt: Recorded pKd of TPPAAKKSRI [BAZ1A, Q9NRL2] , please.
Completion: below the threshold

Prompt: Fill in the blank: the reported pKd of QHKTQLQTLI [BPIFA2, Q96DR5] is ____.
Completion: 4.04

Prompt: What does the record list as pKd for EVNETDDTKM [KCNJ1, P48048] ?
Completion: 3.77

Prompt: Name the reported pKd value associated with the binder DDPSTAETVL [ABCA7, Q8IZY2]
Completion: below the threshold

Prompt: Data request, read-out pKd, for TKGPRGPTRV [SAPCD1, Q5SSQ6]
Completion: 4.59

Prompt: Reported pKd, binder KKMPSIESDV [GRIN2A, Q12879] : ____
Completion: below the threshold

Prompt: What pKd value was documented for this binder, LKVPPEERLI [CRB2, Q5IJ48] ?
Completion: below the threshold

Prompt: # pKd lookup, item QGLAERISVL [PRKD2, Q9BZL6]
Completion: 4.73

Prompt: Reported pKd for QKNRKAQEDL [CES3, Q6UWW8] : what is it?
Completion: below the threshold

Prompt: pKd lookup needed for GNSVLKSTQF [SLC22A12, Q96S37] , thanks.
Completion: 4.07
